- measured.target: BCR-ABL protein (Homo sapiens)
- measurement.description: Western blot degradation of BCR-ABL in K562 cells
- Format: cell-based
- Design: Western blot was used to detect the expression of BCR-ABL and c-ABL protein in K562 cells; BCR (fusion partner, P11274); endogenous in cells; host or cells: K562; the other entry of the earlier key: BCR (P11274, Breakpoint cluster region protein)
- assay.conditions: 16 hours, 1 nM-10 μM
- Description: (1) Cell seed: K562 cells were added to the 24 well plates, with a cell density of 3×10^5/ml and a total volume of 1.5 ml; Five concentration gradients, 1 nm, 10 nm, 100 nm, 1 μM, and 10 μM, were respectively set for PROTAD series compounds and comparative examples compounds (Dasa-6-2-2-6-VHL, Dasa-6-2-6-CRBN). […] The protein concentration was determined by the Bradford method. […]
Overview of recorded DC50 for various compounds

Q: Given COc1cc(Nc2c(C#N)cnc3cc(OCCCN4CCN(C(=O)CCCCNc5cccc6c5C(=O)N(C5CCC(=O)NC5=O)C6=O)CC4)c(OC)cc23)c(Cl)cc1Cl (centres unmarked) , state its recorded DC50.
A: 10 to 100 nM

Q: Same again, this time with Cc1nc(Nc2ncc(C(=O)Nc3c(C)cccc3Cl)s2)cc(N2CCN(C(=O)CCCC(=O)Nc3cccc4c3CN(C3CCC(=O)NC3=O)C4=O)CC2)n1 (centres unmarked)
A: 10 to 100 nM

Q: Same again, this time with `Cc1nc(Nc2ncc(C(=O)Nc3c(C)cccc3Cl)s2)cc(N2CCN(C(=O)CCCC(=O)N[C@H](C(=O)N3C[C@H](O)C[C@H]3C(=O)NCc3ccc(-c4scnc4C)cc3)C(C)(C)C)CC2)n1`
A: 10 to 100 nM

Q: Same again, this time with Cc1nc(Nc2ncc(C(=O)Nc3c(C)cccc3Cl)s2)cc(N2CCN(C(=O)COc3cccc4c3C(=O)N(C3CCC(=O)NC3=O)C4=O)CC2)n1 (centres unmarked)
A: 1 to 10 nM

Q: Same again, this time with Cc1nc(Nc2ncc(C(=O)Nc3c(C)cccc3Cl)s2)cc(N2CCN(C(=O)CCOCCNc3cccc4c3C(=O)N(C3CCC(=O)NC3=O)C4=O)CC2)n1 (centres unmarked)
A: 1 to 10 nM

* * *

- measured.target: BCR-ABL protein (Homo sapiens)
- measurement.description: Western blot degradation of BCR-ABL in K562 cells
- Format: cell-based
- Design: Western blot was used to detect the expression of BCR-ABL and c-ABL protein in K562 cells; BCR (fusion partner, P11274); endogenous in cells; host or cells: K562; the other entry of the earlier key: BCR (P11274, Breakpoint cluster region protein)
- assay.conditions: 16 hours, 1 nM-10 μM
- Method: (1) Cell seed: K562 cells were added to the 24 well plates, with a cell density of 3×10^5/ml and a total volume of 1.5 ml; Five concentration gradients, 1 nm, 10 nm, 100 nm, 1 μM, and 10 μM, were respectively set for PROTAD series compounds and comparative examples compounds (Dasa-6-2-2-6-VHL, Dasa-6-2-6-CRBN). […] The protein concentration was determined by the Bradford method. […]
readout.type: DC50

Guide cases for DC50, answers given:
{"columns": ["compound", "DC50"],
 "data": [
  ["Cc1nc(Nc2ncc(C(=O)Nc3c(C)cccc3Cl)s2)cc(N2CCN(C(=O)CCOCCOCCOCCOCCC(=O)N[C@H](C(=O)N3C[C@H](O)C[C@H]3C(=O)NCc3ccc(-c4scnc4C)cc3)C(C)(C)C)CC2)n1 [SIAIS151078]", "100 to 1000 nM"],
  ["Cc1nc(Nc2ncc(C(=O)Nc3c(C)cccc3Cl)s2)cc(N2CCN(C(=O)CCOCCOCCOCCNc3cccc4c3C(=O)N(C3CCC(=O)NC3=O)C4=O)CC2)n1 (stereo not drawn) [SIAIS151067]", "1 to 10 nM"],
  ["COc1cc(Nc2c(C#N)cnc3cc(OCCCN4CCN(C(=O)CCCNc5cccc6c5C(=O)N(C5CCC(=O)NC5=O)C6=O)CC4)c(OC)cc23)c(Cl)cc1Cl (stereo not drawn) [SIAIS151162]", "10 to 100 nM"]
]}

Q: Given Cc1nc(Nc2ncc(C(=O)Nc3c(C)cccc3Cl)s2)cc(N2CCN(C(=O)CCCCCCCCC(=O)N[C@H](C(=O)N3C[C@H](O)C[C@H]3C(=O)NCc3ccc(-c4scnc4C)cc3)C(C)(C)C)CC2)n1 [SIAIS151180] , state its recorded DC50.
A: 1 to 10 nM

Q: Same again, this time with Cc1nc(Nc2ncc(C(=O)Nc3c(C)cccc3Cl)s2)cc(N2CCN(C(=O)CC(=O)Nc3cccc4c3CN(C3CCC(=O)NC3=O)C4=O)CC2)n1 (stereo not drawn) [SIAIS164108]
A: 10 to 100 nM

Q: Same again, this time with Cc1nc(Nc2ncc(C(=O)Nc3c(C)cccc3Cl)s2)cc(N2CCN(C(=O)CCCCCCC(=O)N[C@H](C(=O)N3C[C@H](O)C[C@H]3C(=O)NCc3ccc(-c4scnc4C)cc3)C(C)(C)C)CC2)n1 [SIAIS151178]
A: 1 to 10 nM

* * *

Overview of recorded DC50 for various compounds
- measured.target: BCR-ABL protein (Homo sapiens, UniProt P00519)
- Sequence (P00519 with tags, fused parts or gaps): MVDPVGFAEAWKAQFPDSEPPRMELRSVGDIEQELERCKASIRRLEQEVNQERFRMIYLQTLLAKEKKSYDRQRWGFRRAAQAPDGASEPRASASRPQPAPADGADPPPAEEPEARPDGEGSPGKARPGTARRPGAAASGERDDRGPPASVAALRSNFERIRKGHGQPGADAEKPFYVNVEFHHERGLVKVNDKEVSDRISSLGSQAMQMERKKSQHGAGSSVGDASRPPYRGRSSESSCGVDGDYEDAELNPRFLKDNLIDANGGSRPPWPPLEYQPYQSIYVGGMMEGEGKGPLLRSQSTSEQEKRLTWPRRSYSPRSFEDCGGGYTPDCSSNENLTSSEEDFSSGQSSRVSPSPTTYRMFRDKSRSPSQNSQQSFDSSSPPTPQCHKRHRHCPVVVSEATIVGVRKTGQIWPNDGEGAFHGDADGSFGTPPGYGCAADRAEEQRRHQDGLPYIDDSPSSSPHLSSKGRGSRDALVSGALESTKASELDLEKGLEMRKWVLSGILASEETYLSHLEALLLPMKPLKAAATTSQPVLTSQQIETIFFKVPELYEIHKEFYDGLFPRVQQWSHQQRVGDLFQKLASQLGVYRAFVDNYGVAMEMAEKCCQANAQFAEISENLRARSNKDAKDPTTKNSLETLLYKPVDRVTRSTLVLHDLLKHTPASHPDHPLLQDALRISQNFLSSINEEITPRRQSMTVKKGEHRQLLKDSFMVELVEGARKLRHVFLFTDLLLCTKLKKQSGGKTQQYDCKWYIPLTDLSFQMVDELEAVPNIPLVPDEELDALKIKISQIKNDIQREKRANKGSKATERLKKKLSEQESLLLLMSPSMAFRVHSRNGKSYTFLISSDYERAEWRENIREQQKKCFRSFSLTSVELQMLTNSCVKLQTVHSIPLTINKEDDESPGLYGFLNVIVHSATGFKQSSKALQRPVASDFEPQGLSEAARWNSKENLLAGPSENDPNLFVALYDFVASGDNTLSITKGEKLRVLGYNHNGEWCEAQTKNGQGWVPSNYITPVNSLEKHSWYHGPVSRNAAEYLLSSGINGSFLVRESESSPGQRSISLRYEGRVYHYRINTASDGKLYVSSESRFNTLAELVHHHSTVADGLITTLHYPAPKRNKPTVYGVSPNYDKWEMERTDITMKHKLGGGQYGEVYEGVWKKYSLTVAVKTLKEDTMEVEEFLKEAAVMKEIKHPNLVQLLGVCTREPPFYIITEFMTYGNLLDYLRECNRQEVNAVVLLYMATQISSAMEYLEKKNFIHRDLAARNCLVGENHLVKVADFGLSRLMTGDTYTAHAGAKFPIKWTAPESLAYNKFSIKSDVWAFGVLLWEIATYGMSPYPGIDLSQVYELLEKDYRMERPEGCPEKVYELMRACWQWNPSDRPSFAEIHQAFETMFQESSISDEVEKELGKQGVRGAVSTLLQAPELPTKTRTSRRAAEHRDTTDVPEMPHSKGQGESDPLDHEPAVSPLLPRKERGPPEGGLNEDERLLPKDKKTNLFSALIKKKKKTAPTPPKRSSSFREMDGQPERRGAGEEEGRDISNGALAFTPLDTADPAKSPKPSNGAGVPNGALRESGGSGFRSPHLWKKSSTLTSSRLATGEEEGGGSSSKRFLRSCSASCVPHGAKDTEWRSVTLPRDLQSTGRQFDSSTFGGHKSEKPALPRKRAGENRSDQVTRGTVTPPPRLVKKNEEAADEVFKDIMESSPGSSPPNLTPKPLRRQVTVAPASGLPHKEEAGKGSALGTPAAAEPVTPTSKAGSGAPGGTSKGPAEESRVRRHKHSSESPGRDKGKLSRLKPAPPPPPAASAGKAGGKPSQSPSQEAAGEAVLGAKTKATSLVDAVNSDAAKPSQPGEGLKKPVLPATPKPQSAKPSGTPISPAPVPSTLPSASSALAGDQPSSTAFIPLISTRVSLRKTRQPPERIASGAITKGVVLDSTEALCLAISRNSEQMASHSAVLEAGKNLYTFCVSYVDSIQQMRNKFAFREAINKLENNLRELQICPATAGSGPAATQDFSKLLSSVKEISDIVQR
- measurement.description: Western blot degradation of BCR-ABL in K562 cells
- Format: cell-based
- Parameters: Western blot was used to detect the expression of BCR-ABL and c-ABL protein in K562 cells; BCR (fusion partner, P11274); endogenous in cells; host or cells: K562; the other entry of the earlier key: BCR (P11274, Breakpoint cluster region protein)
- assay.conditions: 16 hours, 1 nM-10 μM
- Experimental: (1) Cell seed: K562 cells were added to the 24 well plates, with a cell density of 3×10^5/ml and a total volume of 1.5 ml; Five concentration gradients, 1 nm, 10 nm, 100 nm, 1 μM, and 10 μM, were respectively set for PROTAD series compounds and comparative examples compounds (Dasa-6-2-2-6-VHL, Dasa-6-2-6-CRBN). […] The protein concentration was determined by the Bradford method. […]

Q: Given Cc1nc(Nc2ncc(C(=O)Nc3c(C)cccc3Cl)s2)cc(N2CCN(C(=O)CCCCCCNc3cccc4c3C(=O)N(C3CCC(=O)NC3=O)C4=O)CC2)n1 (centres unmarked) , state its recorded DC50.
A: 0.001 to 0.01 µM

* * *

Overview of recorded IC50 for various compounds
- System: HEK293 (BCR-ABL-) cells
- measurement.description: CCK-8 proliferation inhibition, HEK293 cells
- assay.conditions: Homo sapiens, HEK293, 48 h, read-out: Proliferative inhibitory activity (IC50, nM) HEK293 (BCR-ABL-)

Guide cases for IC50, answers given:
{"columns": ["compound", "IC50"],
 "data": [
  ["COc1cc(Nc2c(C#N)cnc3cc(OCCCN4CCN(C(=O)CCOCCOCCOCCNc5cccc6c5C(=O)N(C5CCC(=O)NC5=O)C6=O)CC4)c(OC)cc23)c(Cl)cc1Cl (stereo not drawn) [SIAIS151159]", "> 10000 nM"],
  ["Cc1nc(Nc2ncc(C(=O)Nc3c(C)cccc3Cl)s2)cc(N2CCN(C(=O)CCCCC(=O)N[C@H](C(=O)N3C[C@H](O)C[C@H]3C(=O)NCc3ccc(-c4scnc4C)cc3)C(C)(C)C)CC2)n1 [SIAIS151176]", "> 10000 nM"]
]}

Turning now to a further compound:
Q: Given COc1cc(Nc2c(C#N)cnc3cc(OCCCN4CCN(C(=O)CCC(=O)NCCNc5cccc6c5C(=O)N(C5CCC(=O)NC5=O)C6=O)CC4)c(OC)cc23)c(Cl)cc1Cl (stereo not drawn) [SIAIS164136] , state its recorded IC50.
A: > 10000 nM

* * *

- Test system: HEK293 (BCR-ABL-) cells
- measurement.description: CCK-8 proliferation inhibition, HEK293 cells;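 also: Ten-point threefold dilution series starting at 10 µM, CCK-8 absorbance at 450 nm read after 2 h reagent incubation, DMSO-treated cells as negative control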
- assay.conditions: Homo sapiens, HEK293, 48 h, read-out: Proliferative inhibitory activity (IC50, nM) HEK293 (BCR-ABL-)
readout.type: IC50

Guide cases for IC50, answers given:
{"columns": ["compound", "IC50"],
 "data": [
  ["Cc1nc(Nc2ncc(C(=O)Nc3c(C)cccc3Cl)s2)cc(N2CCN(C(=O)CNc3cccc4c3C(=O)N(C3CCC(=O)NC3=O)C4=O)CC2)n1 (stereo not drawn)", "> 10000 nM"],
  ["Cc1nc(Nc2ncc(C(=O)Nc3c(C)cccc3Cl)s2)cc(N2CCN(C(=O)CCCC(=O)Nc3cccc4c3C(=O)N(C3CCC(=O)NC3=O)C4=O)CC2)n1 (stereo not drawn)", "> 10000 nM"]
]}

Turning now to a further compound:
Q: Given `Cc1nc(Nc2ncc(C(=O)Nc3c(C)cccc3Cl)s2)cc(N2CCN(C(=O)CCCCNC(=O)CCCCCCCCC(=O)N[C@H](C(=O)N3C[C@H](O)C[C@H]3C(=O)NCc3ccc(-c4scnc4C)cc3)C(C)(C)C)CC2)n1` , state its recorded IC50.
A: > 10000 nM

These data points were gathered from patent US11639343B2.
